System: HOP-92
Assay: NCI tumour cell line growth inhibition, 48 h
Active and inactive are the calls of the source. No stated cut-off is given here; in the data, active = GI50 up to about 1.1 µM and inactive = higher.
Classes used: true (1) (active), false (0) (inactive)

1. CCOC(=O)C1(Cc2ccccc2)CCCCCN1 (stereo unspecified): false (0)
2. NCCC1(N)CCNCC1: true (1)
3. CN(Nc1cc(=O)[nH]c(=O)[nH]1)c1ccccc1: false (0)
4. Cc1ccc(C(=O)NCc2ccccc2)cc1/N=N/N(C)C: false (0)
5. CN1CCCCC1CCN1c2ccccc2Sc2ccc([S+](C)[O-])cc21 (stereo unspecified) [MESORIDAZINE]: false (0)
6. CSC(=N\c1ccccc1)/N=C(\SCc1ccccc1)N(C)C: false (0)
7. CC1(CO)OC1COCc1ccccc1 (stereo unspecified): false (0)
8. CC(=O)OCc1cc(OC(C)=O)c2cc3c(OC(C)=O)cccc3c(OC(C)=O)c2c1: false (0)
9. COc1ccc(C2C(Cl)C(=O)N2NC(=O)c2ccccc2O)cc1 (stereo unspecified): false (0)
10. c1sc(NC2=NCCO2)c2c1CCCC2: false (0)
11. N#Cc1c(-c2ccc(Cl)cc2)c(C#N)c(=O)n(NS(=O)(=O)c2ccccc2)c1S: false (0)
12. O=c1[nH]cc(OCC(F)(F)F)c(=O)[nH]1: false (0)
13. N#CCCN(CCC#N)c1ccc(/C=C2\N=C(c3ccccc3)N(c3ccc(Cl)cc3)C2=O)cc1: false (0)
14. O=c1[nH]c(=O)n(C2CC(O)C(CO)O2)cc1/N=N/NCCCc1ccccc1 (stereo unspecified): false (0)
15. c1ccc2[nH]c(-c3nc4ccccc4o3)nc2c1: false (0)
16. COC(=O)[C@@H]1O[C@]12C(CO[Si](C)(C)C(C)(C)C)OC(n1ccc(=O)[nH]c1=O)C2O[Si](C)(C)C(C)(C)C (stereo partly specified): false (0)
17. Cc1c2cc[n+](C)c(C)c2cc2c1[nH]c1ccccc12: false (0)
18. O=C(N/N=C/c1ccc2c(c1)CCC2)c1ccccc1O: false (0)
19. COc1ccc(C(O)c2ccc3c(c2)OCO3)cc1 (stereo unspecified): false (0)
20. COc1ccc(NCc2c(O)ccc3ccccc23)cc1: false (0)
21. CCCCCCCCCCCCCCCC(=O)OCC1OC(n2cc(F)c(=O)[nH]c2=O)C(NC(=O)N(CCCl)N=O)C(O)C1O (stereo unspecified): false (0)
22. O=C1C(Cl)=C(c2ccc([N+](=O)[O-])cc2)C(=O)c2c(O)cccc21: false (0)
23. CSc1ncnc2c1ncn2CCC(=O)O: false (0)
24. COc1ccc(NC(=O)/C(=N\NC(=O)C[n+]2ccccc2)c2c(O)c3ccc(O)cc3oc2=O)c([N+](=O)[O-])c1: false (0)
25. COC(=O)CNC(=O)CCC(C)[C@H]1CCC2C3C(C[C@H](OC(C)=O)[C@@]21C)[C@@]1(C)CCC2(C[C@H]1C[C@H]3OC(C)=O)OOC1(CCCCC1)OO2 (stereo partly specified): true (1)
26. CC1OC2=N[C@@H]1C(=O)N[C@@H](Cc1ccccc1)C1=N[C@H](C(=O)N[C@@H](Cc3ccccc3)C3=N[C@H](C(=O)N[C@H]2Cc2ccccc2)C(C)O3)C(C)O1 (stereo partly specified): false (0)
27. O=C(O)CCc1coc2ccc(O)cc12: false (0)
28. CCC1c2[nH]c3ccccc3c2C[C@H]2C(=O)NC(CCC(=O)OC(C)(C)C)C(=O)N12 (stereo partly specified): false (0)
29. COC(=O)c1ccccc1CC(Cc1ccc2c(c1)CCC2)C(=O)OC (stereo unspecified): false (0)
30. Nc1ncnc2c1N=C(c1ccccc1)CC(c1ccccc1)N2 (stereo unspecified): false (0)
31. COc1c(C(=O)/C(=N/Nc2ccc(C(=O)O)cc2)C(C)=O)c(O)cc2occc12: false (0)
32. C=C1CC2CC(O)CC(C1)C2 (stereo unspecified): false (0)
33. O=C(CCc1ccccc1)On1c(-c2ccccc2)nc2ccccc2c1=S: false (0)
34. Cc1oc2c(c1C)S(=O)(=O)C(C#N)=C(c1ccccc1)N2: false (0)
35. CCCCCCCCCCCCCC(=O)OCC1OC(=O)CC1O (stereo unspecified): false (0)
36. CCCCOC(=O)NC(Nc1ccc(S(=O)(=O)Nc2ccc(OC)nn2)cc1)(C(F)(F)F)C(F)(F)F: false (0)
37. S=c1sc2nc(Cl)nc(Cl)c2s1: false (0)
38. C=C1CC[C@@]2(C)[C@@H]([C@@H]1C)[C@H]1CC[C@@H]3[C@@]4(C)CC[C@H](O)C(C)(C)[C@@H]4CC[C@@]3(C)[C@]1(C)C[C@@H]2O: false (0)
39. Clc1cc(N/N=C(/c2ccccc2)c2ncccn2)ncn1: false (0)
40. Cc1cc(C)nc(NS(=O)(=O)c2ccc(NNc3c4ccccc4nc4c(C(=O)Nc5ccc(S(=O)(=O)Nc6ncccn6)cc5)cccc34)cc2)n1: false (0)
41. O=C(CCC(=O)c1ccsc1)c1ccsc1: false (0)
